Provide the recorded pIC50 for the entries that follow.
- target-or-test-system: CDK6/Cyclin D3 (Homo sapiens, UniProt Q00534)
- Sequence (Q00534 whole entry): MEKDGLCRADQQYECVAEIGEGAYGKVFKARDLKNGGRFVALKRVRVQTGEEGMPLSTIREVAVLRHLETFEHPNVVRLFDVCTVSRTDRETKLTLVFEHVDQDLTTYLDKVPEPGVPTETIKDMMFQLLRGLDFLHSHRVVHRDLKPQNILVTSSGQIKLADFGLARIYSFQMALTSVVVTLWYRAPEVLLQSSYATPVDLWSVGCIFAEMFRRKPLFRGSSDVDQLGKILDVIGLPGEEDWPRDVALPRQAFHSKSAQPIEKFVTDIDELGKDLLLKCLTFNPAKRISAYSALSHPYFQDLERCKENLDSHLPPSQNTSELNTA
- Sequence (P30281 whole entry partner): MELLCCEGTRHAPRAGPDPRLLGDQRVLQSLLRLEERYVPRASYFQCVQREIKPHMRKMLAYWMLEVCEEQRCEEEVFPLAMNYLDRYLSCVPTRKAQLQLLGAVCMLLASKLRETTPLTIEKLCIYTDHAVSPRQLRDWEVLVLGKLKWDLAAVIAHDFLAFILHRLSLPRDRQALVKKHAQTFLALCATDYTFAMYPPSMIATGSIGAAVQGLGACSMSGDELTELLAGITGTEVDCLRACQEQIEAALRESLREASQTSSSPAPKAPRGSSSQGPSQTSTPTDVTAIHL
- protocol-summary: CDK6/Cyclin D3 kinase assay (Nanosyn, Caliper microfluidic)
- experimental-parameters: 12-point dose-response, ATP at Km (300 μM), 3 hr
Friendly reminder that pIC50 comes from taking -log10 of the concentration in mol/L.

Exercise: Requested read-out pIC50, target or system CDK6/Cyclin D3 (Homo sapiens, UniProt Q00534), entry O=C1NCC2(CCCCC2)n2c1cc1cnc(NC(=O)[C@@H]3CCNC3)nc12
Solution: 4.85

Exercise: And for O=C1NCC2(CCCCC2)n2c1cc1cnc(N[C@H]3C[C@@H](O)CNC3=O)nc12 ?
Solution: 5.25

Exercise: And for C[C@H]1CC[C@H](Nc2ncc3cc4n(c3n2)C2(CCCCC2)CN=C4)CC1 ?
Solution: 5.70

Exercise: And for NS(=O)(=O)c1cccc(Nc2ncc3cc4n(c3n2)C2(CCCCC2)CNC4=O)c1 ?
Solution: 7.66

Exercise: And for O=C1NCC2(CCCCC2)n2c1cc1cnc(NC(=O)[C@H]3CNCCN3)nc12 ?
Solution: 4.09

Exercise: And for O=C(C[C@@H]1CCCN1)Nc1ncc2cc3n(c2n1)C1(CCCCC1)CNC3=O ?
Solution: 5.08

Exercise: And for O=C1NCC2(CCCCC2)n2c1cc1cnc(N[C@H]3CCCNC3)nc12 ?
Solution: 6.43

Exercise: And for N[C@H]1CC[C@H](Nc2ncc3cc4n(c3n2)C2(CCCCC2)CNC4=O)CC1 ?
Solution: 7.40

Exercise: And for CS(=O)(=O)N[C@H]1CC[C@H](Nc2ncc3cc4n(c3n2)C2(CCCCC2)CNC4=O)CC1 ?
Solution: 6.46

Exercise: And for N[C@H]1CC[C@@H](Nc2ncc3cc4n(c3n2)C2(CCCCC2)CN=C4)CC1 ?
Solution: 6.17

Exercise: And for O=C1NCC2(CCCCC2)n2c1cc1cnc(N[C@@H]3CCCNC3)nc12 ?
Solution: 6.64

Exercise: And for C[C@H]1NCCC[C@H]1C(=O)Nc1ncc2cc3n(c2n1)C1(CCCCC1)CNC3=O ?
Solution: 4.82

Exercise: And for S=C1NCC2(CCCCC2)n2c1cc1cnc(N[C@H]3CCCNC3)nc12 ?
Solution: 7.10

Exercise: And for O=C1NCC2(CCCCC2)n2c1cc1cnc(NC(=O)[C@@H]3CCCNC3)nc12 ?
Solution: 4.55

Exercise: And for O=C1NCC2(CCCCC2)n2c1cc1cnc(N[C@H]3CC[C@H](NCc4cccnc4)CC3)nc12 ?
Solution: 7.15

Exercise: And for CN(C)[C@H]1CC[C@H](Nc2ncc3cc4n(c3n2)C2(CCCCC2)CNC4=O)CC1 ?
Solution: 7.33

Exercise: And for O=C1NCC2(CCCCC2)n2c1cc1cnc(N[C@H]3CCCNC3=O)nc12 ?
Solution: 6.03

Exercise: And for O=C(C[C@H]1CCCN1)Nc1ncc2cc3n(c2n1)C1(CCCCC1)CNC3=O ?
Solution: 4.85

Exercise: And for O=C1NCC2(CCCCC2)n2c1cc1cnc(N[C@H]3CC[C@H](N4CCCCC4)CC3)nc12 ?
Solution: 7.11

Exercise: And for O=C1NCC2(CCCCC2)n2c1cc1cnc(N[C@H]3CC[C@H](Nc4ncc(F)cn4)CC3)nc12 ?
Solution: 7.12

Exercise: And for S=C1NCC2(CCCCC2)n2c1cc1cnc(N[C@@H]3CCCNC3)nc12 ?
Solution: 7.64

Exercise: And for O=C1NCC2(CCCCC2)n2c1cc1cnc(NC(=O)[C@H]3CCNC3)nc12 ?
Solution: 4.92

Exercise: And for O=C1NCC2(CCCCC2)n2c1cc1cnc(N[C@@H]3CCCN[C@@H]3c3ccccc3)nc12 ?
Solution: 4.92

Exercise: And for C1=NCC2(CCCCC2)n2c1cc1cnc(N[C@@H]3CCCNC3)nc12 ?
Solution: 5.96

Exercise: And for C1=NCC2(CCCCC2)n2c1cc1cnc(NC3CCOCC3)nc12 ?
Solution: 6.60

Exercise: And for C1=NCC2(CCCCC2)n2c1cc1cnc(N[C@H]3CCCNC3)nc12 ?
Solution: 5.96

Exercise: And for O=C1NCC2(CCCCC2)n2c1cc1cnc(N[C@H]3CC[C@H](NCc4ccccc4F)CC3)nc12 ?
Solution: 7.11

Exercise: And for O=C1CC[C@H](Nc2ncc3cc4n(c3n2)C2(CCCCC2)CNC4=O)CN1 ?
Solution: 6.00

Exercise: And for O=C1NCC2(CCCCC2)n2c1cc1cnc(N[C@H]3Cc4ccccc4NC3=O)nc12 ?
Solution: 6.01

Exercise: And for O=C1NCC2(CCCCC2)n2c1cc1cnc(N[C@H]3CC[C@H](NC4CCOCC4)CC3)nc12 ?
Solution: 7.14
